biological target: CSNK1G3 (human); assay: KINOMEscan competition binding; conditions: compound 10.0 µM
observed property: kinase still bound, per cent of control (%)
Write the number in % without appending the unit.

Look up kinase still bound, per cent of control for this compound: C=CC(=O)Nc1cccc(Nc2nc(N[C@H]3CC[C@H](N(C)C)CC3)nc3c2ncn3C(C)C)c1
8.2

Look up kinase still bound, per cent of control for this compound: O=C(NOC[C@H](O)CO)c1ccc(F)c(F)c1Nc1ccc(I)cc1F
67

Look up kinase still bound, per cent of control for this compound: C[C@@H](Oc1cc(-n2cnc3ccc(CN4CCN(C)CC4)cc32)sc1C(N)=O)c1ccccc1C(F)(F)F
100

Look up kinase still bound, per cent of control for this compound: N#Cc1c(NC(=O)c2cccc3ccccc23)sc2c1CCCC2
68

Look up kinase still bound, per cent of control for this compound: OCCCNc1cc(-c2ccnc(Nc3cccc(Cl)c3)n2)ccn1
100

Look up kinase still bound, per cent of control for this compound: CN(C)C/C=C/C(=O)Nc1cccc(Nc2ncc3c(n2)N(C)c2ccccc2C(=O)N3C)c1
39

Look up kinase still bound, per cent of control for this compound: O=C1Nc2ccc(I)cc2/C1=C/c1cc(Br)c(O)c(Br)c1
94

Look up kinase still bound, per cent of control for this compound: Cn1c(=O)n(-c2ccc(C(C)(C)C#N)cc2)c2c3cc(-c4cnc5ccccc5c4)ccc3ncc21
100

Look up kinase still bound, per cent of control for this compound: C=CC(=O)Nc1cc(NC(=O)c2ccc(C)c(NC(=O)c3ccno3)c2)cc(C(F)(F)F)c1
96

Look up kinase still bound, per cent of control for this compound: Cc1ccc(C(=O)Nc2cccc(C(F)(F)F)c2)cc1Nc1cncc(C(N)=O)c1
100

====

target: RPS6KA4 KD1 (human); assay: KINOMEscan competition binding; details: compound 10.0 µM
observed property: kinase still bound, per cent of control (%)
Write the number in % without appending the unit.

Look up kinase still bound, per cent of control for this compound: CCC(=O)N1CCN(c2ccc(-n3c(=O)ccc4cnc5ccc(-c6cnc7ccccc7c6)cc5c43)cc2C(F)(F)F)CC1
100

Look up kinase still bound, per cent of control for this compound: CN(C)C/C=C/C(=O)Nc1cccc(Nc2ncc3c(n2)N(C)c2ccccc2C(=O)N3C)c1
59

Look up kinase still bound, per cent of control for this compound: O=C(NOC[C@H](O)CO)c1ccc(F)c(F)c1Nc1ccc(I)cc1F
86

Look up kinase still bound, per cent of control for this compound: C=CC(=O)Nc1cc(NC(=O)c2ccc(C)c(NC(=O)c3ccno3)c2)cc(C(F)(F)F)c1
100

Look up kinase still bound, per cent of control for this compound: Nc1ccc(-c2ccc3ncc4ccc(=O)n(-c5cccc(C(F)(F)F)c5)c4c3c2)cn1
82

Look up kinase still bound, per cent of control for this compound: O=C(NC1CC1)c1cccc(-c2ccc3c(NC(=O)C4CC4)n[nH]c3c2)c1
100

Look up kinase still bound, per cent of control for this compound: COc1cc(C(=O)NC2CCN(C)CC2)ccc1Nc1ncc2c(n1)N(C1CCCC1)CCC(=O)N2C(C)C
100

Look up kinase still bound, per cent of control for this compound: C=CC(=O)Nc1cccc(Nc2nc(N[C@H]3CC[C@H](N(C)C)CC3)nc3c2ncn3C(C)C)c1
59

Look up kinase still bound, per cent of control for this compound: Cc1ccc(C(=O)Nc2cccc(C(F)(F)F)c2)cc1Nc1cncc(C(N)=O)c1
100
